Molecular target: BTK (Homo sapiens)
Sequence (Q06187 whole entry): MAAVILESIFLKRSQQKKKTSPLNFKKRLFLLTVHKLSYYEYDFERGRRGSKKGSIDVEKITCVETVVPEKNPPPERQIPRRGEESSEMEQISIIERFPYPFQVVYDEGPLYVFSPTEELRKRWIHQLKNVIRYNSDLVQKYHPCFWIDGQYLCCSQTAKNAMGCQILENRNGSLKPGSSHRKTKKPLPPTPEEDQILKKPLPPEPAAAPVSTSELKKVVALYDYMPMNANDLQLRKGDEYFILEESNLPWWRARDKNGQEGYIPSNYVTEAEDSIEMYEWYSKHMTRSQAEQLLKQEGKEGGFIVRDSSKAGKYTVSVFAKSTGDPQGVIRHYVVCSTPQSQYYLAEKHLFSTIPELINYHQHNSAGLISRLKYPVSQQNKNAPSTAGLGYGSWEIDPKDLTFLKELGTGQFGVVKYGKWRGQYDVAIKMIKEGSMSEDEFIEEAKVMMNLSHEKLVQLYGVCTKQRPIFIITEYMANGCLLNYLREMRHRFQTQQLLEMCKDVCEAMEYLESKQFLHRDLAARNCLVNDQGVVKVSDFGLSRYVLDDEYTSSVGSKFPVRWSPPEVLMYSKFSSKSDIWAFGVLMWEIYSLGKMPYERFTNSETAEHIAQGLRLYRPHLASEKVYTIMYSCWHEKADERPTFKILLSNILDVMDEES
Assay: Degradation of BTK protein in Namalwa cells (Western blot; DC50, Dmax)
quantity-measured: Dmax

- molecule: "NC(=O)c1c(-c2ccc(Oc3ccccc3)cc2)nn2c1NCCC2C1CCN(CC2CCN(C(=O)N3CCN(c4ccc5c(c4)C(=O)N(C4CCC(=O)NC4=O)C5=O)CC3)CC2)CC1 (centres unmarked) [Compound 357]"
  result: "> 50%"
- molecule: "NC(=O)c1c(-c2ccc(Oc3ccccc3)cc2)nn2c1NCCC2C1CCN(CC2CCN(C(=O)N3CCC(CN4CCN(c5ccc6c(c5)C(=O)N(C5CCC(=O)NC5=O)C6=O)CC4)CC3)CC2)CC1 (centres unmarked) [Compound 369]"
  result: "> 90%"
- molecule: "NC(=O)c1c(-c2ccc(Oc3ccccc3)cc2)nn2c1NCC[C@H]2C1CCN(C2CCN(C(=O)N3CCN(CC4CCN(c5ccc6c(c5)CN(C5CCC(=O)NC5=O)C6=O)CC4)CC3)CC2)CC1 (some centres unmarked) [Compound 392]"
  result: "> 90%"
- molecule: "NC(=O)c1c(-c2ccc(Oc3ccccc3)cc2)nn2c1NCC[C@H]2C1CCN(C2CCN(C(=O)N3CCN(Cc4ccc5c(c4)C(=O)N(C4CCC(=O)NC4=O)C5=O)CC3)CC2)CC1 (some centres unmarked) [Compound 379]"
  result: "> 75%"
- molecule: "Nc1ncnc2c1c(-c1ccc(Oc3ccccc3)cc1)nn2C1CCN(C2CCN(CCN3CCN(c4ccc5c(c4)CN(C4CCC(=O)NC4=O)C5=O)CC3)CC2)CC1 (centres unmarked) [Compound 218]"
  result: "> 75%"
